Study System: BRD4 BD2 (Homo sapiens)
Construct: BRD2 BD2, BRD3 BD2 and BRD4 BD2 (Cisbio); purchased Cisbio
Assay Info: Binding assay, BRD4 BD2 to acetylated histone H4 Peptide-Biotin (EPIgeneous Binding Domain Kit B)
Setup Conditions: test compound at 300 nmol/L; read-out: Binding inhibition percentage BRD4 BD2
Parameter: inhibition at 0.3 µM (%)

CCC1C(=O)N(c2ccccc2)N(c2ccc3c(c2)c(C2CC2)cc(=O)n3CC)C1=O (centres unmarked)	88
CCn1c(=O)cc(C2CC2)c2cc(-n3c(=O)[nH]c(=O)n3-c3ccccc3)ccc21	90
CCn1c(=O)cc(N2CCOCC2)c2cc(-n3c(-c4ccc(C(F)(F)F)cc4)cn(C)c3=O)ccc21	89
CCn1c(=O)cc(N2CCOCC2)c2cc(-c3cnn(C)c3-c3ccccc3)ccc21	85
CCN1CCC(c2cc(=O)n(CC)c3ccc(C(=O)N(C)c4ccccc4)cc23)CC1	74
CCn1c(=O)cc(N2CCOCC2)c2cc(-n3cc(C)nc3-c3ccccc3)ccc21	88
CCn1c(=O)cc(C(C)C)c2cc(N(C)C(=O)c3ccc(Cl)cc3)ccc21	88
CCn1c(=O)cc(N2CCOCC2)c2cc(-n3ccnc3-c3ccccc3)ccc21	87
CCn1c(=O)cc(C2CCN(C)CC2)c2cc(C(=O)N(C)c3ccc4c(c3)CCC4)ccc21	88
CCn1c(=O)cc(C2CCN(C)CC2)c2cc(C(=O)N(C)c3ccc(C)c(Cl)c3)ccc21	87
CCn1c(=O)cc(C2CC2)c2cc(-c3cccnc3-c3ccccc3)ccc21	89

###

Study System: BRD3 BD1 (Homo sapiens, UniProt Q15059)
Construct: BRD2 BD1, BRD3 BD1 and BRD4 BD1 (Cisbio); purchased Cisbio
Sequence (Q15059 34-140 limits assumed): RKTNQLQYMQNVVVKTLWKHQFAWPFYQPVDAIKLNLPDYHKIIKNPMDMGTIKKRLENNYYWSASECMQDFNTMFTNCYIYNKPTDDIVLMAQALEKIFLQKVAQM
Assay Info: Binding assay, BRD3 BD1 to acetylated histone H4 Peptide-Biotin (EPIgeneous Binding Domain Kit A)
Setup Conditions: test compound at 300 nmol/L; read-out: Binding inhibition percentage BRD3 BD1
Parameter: inhibition at 0.3 µM (%)

CCn1c(=O)cc(C2CCN(C(=O)C(C)C)CC2)c2cc(C(=O)N(C)c3ccc(C)cc3)ccc21	92
CCn1c(=O)cc(N2CCOCC2)c2cc(-n3ccnc3-c3ccccc3)ccc21	92
CCn1c(=O)cc(C2CCN(C)CC2)c2cc(C(=O)N3CCCc4ccccc43)ccc21	94
CCn1c(=O)cc(C2CC2)c2cc(-n3c(=O)[nH]c(=O)n3-c3ccccc3)ccc21	95
CCCn1cc(-c2ccccc2)n(-c2ccc3c(c2)c(N2CCOCC2)cc(=O)n3CC)c1=O	95
CCn1c(=O)cc(C2CCN(C)CC2)c2cc(C(=O)N(C)c3ccc(C)c(Cl)c3)ccc21	93
CCn1c(=O)cc(C2CC2)c2cc(-n3c(C)cc(=O)n3-c3ccccc3)ccc21 [Example 282b]	89
CCn1c(=O)cc(C2CCC(O)CC2)c2cc(C(=O)N(C)c3ccc(Cl)cc3)ccc21 (centres unmarked)	94

###

Study System: BRD2 BD1 (Homo sapiens)
Construct: BRD2 BD1, BRD3 BD1 and BRD4 BD1 (Cisbio); purchased Cisbio
Sequence (P25440 74-180 limits assumed): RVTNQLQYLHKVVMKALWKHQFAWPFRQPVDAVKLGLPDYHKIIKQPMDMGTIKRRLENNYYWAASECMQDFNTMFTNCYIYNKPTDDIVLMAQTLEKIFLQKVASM
Assay Info: Binding assay, BRD2 BD1 to acetylated histone H4 Peptide-Biotin (EPIgeneous Binding Domain Kit A)
Setup Conditions: test compound at 300 nmol/L; read-out: Binding inhibition percentage BRD2 BD1
Parameter: inhibition at 0.3 µM (%)

CCn1c(=O)cc(C2CCN(C)CC2)c2cc(C(=O)N(C)c3ccc(C)c(C)c3)ccc21 [Example 294]	94
CCCn1cc(-c2ccccc2)n(-c2ccc3c(c2)c(N2CCOCC2)cc(=O)n3CC)c1=O [Example 265]	91
CCn1c(=O)cc(N2CCOCC2)c2cc(-c3cnn(C)c3-c3ccccc3)ccc21 [Example 18]	89
CCn1c(=O)cc(N2CCOCC2)c2cc(-n3c(-c4ccc(Cl)cc4)c[nH]c3=O)ccc21 [Example 245]	79
CCn1c(=O)cc(N2CCOCC2)c2cc(-n3c(-c4ccccc4)cn(CCO)c3=O)ccc21 [Example 262]	87
CCn1c(=O)cc(N2CCOCC2)c2cc(N(C)C(=O)c3ccc(Cl)cc3)ccc21 [Example 250]	74
CCn1c(=O)cc(C2CC2)c2cc(-c3cccnc3-c3ccccc3)ccc21 [Example 278]	83
CCn1c(=O)cc(C2CCN(C(=O)C(C)C)CC2)c2cc(C(=O)N(C)c3ccc(C)cc3)ccc21 [Example 183]	81
